Record form. Attribute: ΔTm. Fill in for each entry.
assayed_target: Transcription intermediary factor 1-alpha (Homo sapiens) (UniProt O15164)
Sequence (whole entry): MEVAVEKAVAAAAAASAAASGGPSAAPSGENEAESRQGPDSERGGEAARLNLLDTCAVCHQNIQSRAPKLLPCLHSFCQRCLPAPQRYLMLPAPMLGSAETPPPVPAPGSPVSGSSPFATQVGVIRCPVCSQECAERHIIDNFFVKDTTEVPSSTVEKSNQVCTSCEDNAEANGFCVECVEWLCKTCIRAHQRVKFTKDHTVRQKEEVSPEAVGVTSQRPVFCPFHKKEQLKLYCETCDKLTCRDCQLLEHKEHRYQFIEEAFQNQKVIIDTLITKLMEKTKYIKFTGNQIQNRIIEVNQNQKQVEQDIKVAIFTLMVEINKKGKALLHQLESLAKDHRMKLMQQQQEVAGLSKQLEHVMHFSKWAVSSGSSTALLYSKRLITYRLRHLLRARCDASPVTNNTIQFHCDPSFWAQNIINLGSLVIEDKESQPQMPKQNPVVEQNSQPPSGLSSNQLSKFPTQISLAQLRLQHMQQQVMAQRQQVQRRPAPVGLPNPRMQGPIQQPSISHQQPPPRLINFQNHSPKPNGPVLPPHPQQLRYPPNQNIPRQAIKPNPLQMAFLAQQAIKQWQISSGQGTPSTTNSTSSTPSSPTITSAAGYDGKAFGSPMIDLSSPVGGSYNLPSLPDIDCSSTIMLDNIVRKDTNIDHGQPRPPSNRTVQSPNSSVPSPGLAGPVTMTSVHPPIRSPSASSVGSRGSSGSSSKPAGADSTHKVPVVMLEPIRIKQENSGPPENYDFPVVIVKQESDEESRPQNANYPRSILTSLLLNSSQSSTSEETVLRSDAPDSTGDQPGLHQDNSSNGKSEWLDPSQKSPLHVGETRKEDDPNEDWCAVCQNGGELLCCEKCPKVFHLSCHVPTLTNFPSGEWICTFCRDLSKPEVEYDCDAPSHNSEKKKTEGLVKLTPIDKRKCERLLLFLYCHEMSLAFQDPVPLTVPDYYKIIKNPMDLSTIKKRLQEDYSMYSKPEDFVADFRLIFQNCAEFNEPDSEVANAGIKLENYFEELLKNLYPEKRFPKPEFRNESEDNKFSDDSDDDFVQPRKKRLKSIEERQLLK
conditions: Compound concentration 20.0 uM
One number for each entry, in °C.

// below: answered compounds
>>> reported_measurement("CNCC[C@@H](Oc1ccccc1C)c1ccccc1")
0.48
>>> reported_measurement("C[C@@H](Oc1ccc(S(C)(=O)=O)cc1C(=O)N1C[C@@H]2C[C@]2(c2cc(C(F)(F)F)on2)C1)C(F)(F)F")
0.43
>>> reported_measurement("CC(=O)N1CCc2c(c(N3CCCc4cc(-c5cnn(C)c5)c(C(F)F)cc43)nn2C2CCOCC2)C1")
-1.11

For the 7 compounds below, give their ΔTm values.
1. O=C(c1cc(Cc2n[nH]c(=O)c3ccccc23)ccc1F)N1CC(CNC2CC2)C1
2. c1cncc(-c2cnn[nH]2)c1
3. O=C(c1cc(Cl)c(O)c(Cl)c1)N1CS(=O)(=O)c2ccccc21
4. Nc1ncnc2c1nc(NCc1ccc(-c3ccccc3)cc1)n2[C@@H]1O[C@H](CO)[C@@H](O)[C@H]1O
5. O=C(O)CCNC(=S)NCCCC[C@H](NS(=O)(=O)c1cccc(F)c1)C(=O)N[C@@H](Cc1c[nH]c2ccccc12)C(=O)NC1CCC1
6. COc1cccc(-c2nccc3c2CN(c2ccccc2)C3=O)c1
7. O=C(Oc1cccc(F)c1OC(=O)c1cccc(O)c1)c1cccc(O)c1

Output line:
[0.44, -0.2, -0.84, -0.53, -1.96, -1.44, 1.67]
